For each entry below, report its phosphorylation enrichment value.
Target: FGFR1 (UniProt P11362)
Sequence (P11362 whole entry, looked up): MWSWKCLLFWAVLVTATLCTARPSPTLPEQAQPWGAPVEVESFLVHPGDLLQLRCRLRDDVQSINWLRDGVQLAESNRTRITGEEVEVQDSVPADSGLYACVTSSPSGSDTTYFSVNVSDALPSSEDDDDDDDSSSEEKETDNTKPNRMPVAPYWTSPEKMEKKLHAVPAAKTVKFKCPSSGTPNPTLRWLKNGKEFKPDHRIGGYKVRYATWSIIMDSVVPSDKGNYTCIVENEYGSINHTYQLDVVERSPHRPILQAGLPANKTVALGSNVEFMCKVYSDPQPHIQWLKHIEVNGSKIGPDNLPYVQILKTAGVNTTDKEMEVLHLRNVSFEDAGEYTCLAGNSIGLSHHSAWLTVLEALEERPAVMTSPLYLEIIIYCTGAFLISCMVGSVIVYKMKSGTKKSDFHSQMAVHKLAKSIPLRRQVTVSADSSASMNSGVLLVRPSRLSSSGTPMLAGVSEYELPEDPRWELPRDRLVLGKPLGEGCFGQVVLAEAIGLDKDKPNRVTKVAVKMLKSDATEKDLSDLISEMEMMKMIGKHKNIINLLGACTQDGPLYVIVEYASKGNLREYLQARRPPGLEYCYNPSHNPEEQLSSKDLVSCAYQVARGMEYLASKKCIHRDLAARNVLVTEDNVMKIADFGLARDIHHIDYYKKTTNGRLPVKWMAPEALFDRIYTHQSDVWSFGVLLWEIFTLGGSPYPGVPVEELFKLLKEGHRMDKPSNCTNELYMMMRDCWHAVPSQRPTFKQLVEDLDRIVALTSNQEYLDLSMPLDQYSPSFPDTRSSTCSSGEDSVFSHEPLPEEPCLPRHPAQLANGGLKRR
Assay: phosphorylation enrichment, bacterial display (enrichment ratio); higher = better substrate or ligand; peptides without Tyr show the background;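 note: 11-residue human phosphosite peptides and single-mutation variants displayed on the E. coli surface, counted by deep sequencing, each peptide's frequency after selection divided by its frequency in the unselected input library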;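 note: frequency after pTyr selection over input frequency; kinase dosed for 20-30% of maximal phosphorylation in three min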
Give the figure only, with no unit attached.

Please state recorded phosphorylation enrichment (tested on FGFR1 (UniProt P11362)) of MLEVPYVDHNS [F10_Y384_R387H] 0.516

Lab note: need phosphorylation enrichment for WQQQSYLGSGI [CTNNB1_Y30_D32G] on FGFR1 (UniProt P11362), anyone have it? 0.634

Checklist item: phosphorylation enrichment tested on FGFR1 (UniProt P11362), entry SKEPFYVHCIK [MYO1D_Y586_R588H_YF] , value? 0.484

Checklist item: phosphorylation enrichment tested on FGFR1 (UniProt P11362), entry VKALKYKSMKI [ITGA11_Y1098_L1093V] , value? 0.369

Entry AEVDTYCRHNY [HLA-DRB1_Y107_A103E] , system FGFR1 (UniProt P11362): what phosphorylation enrichment was measured? 0.461

Tell me reported phosphorylation enrichment for GGPTYYIDTNA [ACTL6A_Y69] , tested with FGFR1 (UniProt P11362). 1.09

Please state recorded phosphorylation enrichment (tested on FGFR1 (UniProt P11362)) of KFACSYTPVKA [FLNB_Y708_T703K_YF] 0.497
